Molecular target: UniProt:D3ZFJ0
Sequence (D3ZFJ0 1-1102): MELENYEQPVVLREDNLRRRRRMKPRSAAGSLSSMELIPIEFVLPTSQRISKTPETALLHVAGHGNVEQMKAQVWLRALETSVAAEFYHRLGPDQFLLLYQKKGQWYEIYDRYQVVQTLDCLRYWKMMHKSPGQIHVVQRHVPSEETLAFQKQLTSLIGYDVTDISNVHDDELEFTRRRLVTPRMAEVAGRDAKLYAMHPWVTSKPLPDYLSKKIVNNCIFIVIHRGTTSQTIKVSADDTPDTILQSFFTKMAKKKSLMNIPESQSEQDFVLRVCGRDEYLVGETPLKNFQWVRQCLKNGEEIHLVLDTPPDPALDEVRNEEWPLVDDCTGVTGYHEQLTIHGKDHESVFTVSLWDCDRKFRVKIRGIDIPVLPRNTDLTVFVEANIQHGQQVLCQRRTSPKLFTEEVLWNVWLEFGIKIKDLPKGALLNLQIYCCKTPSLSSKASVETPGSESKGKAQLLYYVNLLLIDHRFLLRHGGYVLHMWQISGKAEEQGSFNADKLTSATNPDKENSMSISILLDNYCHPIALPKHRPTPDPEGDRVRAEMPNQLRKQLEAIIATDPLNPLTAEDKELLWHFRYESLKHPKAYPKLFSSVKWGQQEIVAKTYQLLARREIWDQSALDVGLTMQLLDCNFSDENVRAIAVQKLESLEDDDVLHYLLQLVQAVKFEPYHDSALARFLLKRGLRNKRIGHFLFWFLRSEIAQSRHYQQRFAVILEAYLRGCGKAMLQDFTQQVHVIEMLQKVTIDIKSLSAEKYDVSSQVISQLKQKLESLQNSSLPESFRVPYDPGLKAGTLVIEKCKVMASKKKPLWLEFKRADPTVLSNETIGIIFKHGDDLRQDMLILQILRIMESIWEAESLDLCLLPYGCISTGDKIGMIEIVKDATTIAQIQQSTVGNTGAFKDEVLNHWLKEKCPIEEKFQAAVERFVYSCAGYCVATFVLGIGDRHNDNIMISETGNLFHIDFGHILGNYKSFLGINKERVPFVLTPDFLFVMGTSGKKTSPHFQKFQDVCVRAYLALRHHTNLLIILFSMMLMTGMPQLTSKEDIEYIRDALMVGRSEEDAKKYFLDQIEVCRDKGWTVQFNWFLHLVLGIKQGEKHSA
Experiment: PI3K γ assay: CXCL1/CINC-1-stimulated CD11b expression on rat whole blood neutrophils (FACS)
Assay type: cell-based
Details: corrected for protein binding in the assay, mean ± SEM, n = 3; read-out: rat γ free IC50

| RECORD_SMILES | IC50, pM |
| --- | --- |
| Cc1nc(Nc2cccc(N3CCCC3=O)n2)sc1-c1cc2c(c(S(C)(=O)=O)c1)C(=O)N([C@@H](C)C1CC1)C2 | 540 |

----------
fraction unbound: recorded values
Test: Human plasma protein binding and unbound fraction in assay media
Type: in vitro ADME
Settings: human, assay media (PI3K δ assay); fraction unbound in assay media (δ assay, RPMI 10% FBS); read-out: Fu’

| RECORD_SMILES | fraction unbound |
| --- | --- |
| Cc1nc(Nc2cccc(N3CCCC3=O)n2)sc1-c1cc2c(c(S(C)(=O)=O)c1)C(=O)N([C@@H](C)C1CC1)C2 | 0.06 |
| CC(C)N1CCN(Cc2cnc(-c3cc(-c4cccc5[nH]ccc45)cc4[nH]ncc34)o2)CC1 | 0.177 |

----------
Test: Rat plasma protein binding, blood to plasma ratio, unbound fraction in whole blood
Type: in vitro ADME
Details: rat, plasma, rat plasma, fraction unbound; read-out: Rat ppb (fu, %)

| RECORD_SMILES | fraction unbound |
| --- | --- |
| Cc1nc(Nc2cccc(N3CCCC3=O)n2)sc1-c1cc2c(c(S(C)(=O)=O)c1)C(=O)N([C@@H](C)C1CC1)C2 | 0.015 |
| CC(C)N1CCN(Cc2cnc(-c3cc(-c4cccc5[nH]ccc45)cc4[nH]ncc34)o2)CC1 | 0.044 |

----------
Assay: Human plasma protein binding and unbound fraction in assay media
Assay type: in vitro ADME
Conditions: human plasma, fraction unbound; read-out: Human ppb (fu, %)
Protocol: PI3K δ assay: single cell suspension was obtained from the spleen of male Sprague Dawley rat; cells were cultured in RPMI containing heat-inactivated 10% FBS, pre-treated (1 hr., 37 °C, 5% CO2) with vehicle DMSO or PI3K inhibitors, followed by stimulation with AffiniPure F(ab’)2 Fragment Goat Anti-Rat IgM, μ chain specific, Jackson Immunoresearch (112–006-075) at 5 μg/mL (EC80 determined in house; 20–22 hrs). […]

| RECORD_SMILES | fraction unbound |
| --- | --- |
| CC(C)N1CCN(Cc2cnc(-c3cc(-c4cccc5[nH]ccc45)cc4[nH]ncc34)o2)CC1 | 0.021 |
| Cc1nc(Nc2cccc(N3CCCC3=O)n2)sc1-c1cc2c(c(S(C)(=O)=O)c1)C(=O)N([C@@H](C)C1CC1)C2 | 0.0063 |

----------
Target: rat PI3Kδ (Rattus norvegicus)
Sequence (A0A8I5Y949 1-1047): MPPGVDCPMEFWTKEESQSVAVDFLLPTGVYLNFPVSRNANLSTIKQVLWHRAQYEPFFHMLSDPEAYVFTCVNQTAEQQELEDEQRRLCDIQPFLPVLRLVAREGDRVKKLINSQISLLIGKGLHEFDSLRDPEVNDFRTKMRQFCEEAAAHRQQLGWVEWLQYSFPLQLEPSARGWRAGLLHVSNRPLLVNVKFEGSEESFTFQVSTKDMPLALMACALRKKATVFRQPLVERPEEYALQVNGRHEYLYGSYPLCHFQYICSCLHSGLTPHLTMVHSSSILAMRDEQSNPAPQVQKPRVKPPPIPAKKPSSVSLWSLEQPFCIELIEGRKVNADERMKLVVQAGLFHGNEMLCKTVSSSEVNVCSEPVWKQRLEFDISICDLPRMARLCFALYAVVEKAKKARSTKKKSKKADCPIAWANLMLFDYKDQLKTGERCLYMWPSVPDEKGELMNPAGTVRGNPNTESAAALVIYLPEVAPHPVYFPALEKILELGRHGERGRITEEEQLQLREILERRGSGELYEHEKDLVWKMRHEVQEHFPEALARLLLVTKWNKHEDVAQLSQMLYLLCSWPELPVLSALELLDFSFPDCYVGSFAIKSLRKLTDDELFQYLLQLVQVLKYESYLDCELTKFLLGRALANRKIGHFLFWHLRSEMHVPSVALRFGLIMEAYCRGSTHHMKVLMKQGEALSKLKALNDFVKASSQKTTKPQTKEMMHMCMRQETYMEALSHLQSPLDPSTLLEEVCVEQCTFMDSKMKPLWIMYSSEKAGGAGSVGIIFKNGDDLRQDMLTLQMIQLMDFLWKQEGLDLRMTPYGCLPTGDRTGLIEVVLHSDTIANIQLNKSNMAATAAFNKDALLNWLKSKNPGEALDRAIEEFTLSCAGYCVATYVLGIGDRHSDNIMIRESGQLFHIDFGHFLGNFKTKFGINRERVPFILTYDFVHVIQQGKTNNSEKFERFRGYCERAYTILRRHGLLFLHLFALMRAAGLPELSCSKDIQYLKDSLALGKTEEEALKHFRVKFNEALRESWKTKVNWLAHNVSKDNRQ
Assay: PI3K δ assay: anti-IgM-stimulated CD86 expression on rat splenic B cells (FACS)
Type: cell-based
Details: corrected for protein binding in the assay, mean ± SEM, n = 3; read-out: rat δ free IC50
pIC50: −log10 of the molar value.
REPORTED_ENDPOINT: pIC50

| RECORD_SMILES | ENDPOINT_RESULT |
| --- | --- |
| Cc1nc(Nc2cccc(N3CCCC3=O)n2)sc1-c1cc2c(c(S(C)(=O)=O)c1)C(=O)N([C@@H](C)C1CC1)C2 | 9.20 |
